Value source: patent EP4725969A1

- TARGET_DESC: T1, recombinant human HER2 extracellular domain protein (human, UniProt P04626 23-652)
- T1 construct: range 23-652; Range is printed for the immunogen/panning protein; also called ErbB2; recombinant HER2 protein
- EXPERIMENT: BLI, Protein A capture
Entries annotated with measured kon
Give your result in M⁻¹ s⁻¹ as a bare value.

BINDER: 2126-Hu-L05 (antibody, IgG1, V domains shown, IgG1/Cκ) VH: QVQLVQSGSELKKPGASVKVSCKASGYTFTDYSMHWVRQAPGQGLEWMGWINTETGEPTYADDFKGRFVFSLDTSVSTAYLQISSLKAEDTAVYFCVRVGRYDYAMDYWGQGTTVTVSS VL: DIQMTQSPSSLSASVGDRVTITCKASQDVYTAVAWYQQKPGKAPKLLIYSASYRYTGVPSRFSGSGSGTDFTLTISSLQPEDFATYYCQQHYSTPPTFGGGTKVEIK
kon (M⁻¹ s⁻¹): 104000

BINDER: 2126-Hu-H50 (antibody, IgG1, V domains shown, IgG1/Cκ) VH: QVQLVQSGSELKKPGASVKVSCKASGYTFTDYSMHWVRQAPGQGLEWMGWINTETGEPTYADDFKGRFVFSLDTSVSTAYLQISSLKAEDTAVYFCVRVGYYDYAMDYWGQGTTVTVSS VL: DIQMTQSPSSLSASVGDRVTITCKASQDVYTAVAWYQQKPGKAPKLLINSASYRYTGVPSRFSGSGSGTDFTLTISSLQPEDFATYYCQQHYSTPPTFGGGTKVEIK
kon (M⁻¹ s⁻¹): 113000

Okay, next one:
query: Need kon, item 2126-Hu-L16 (antibody, IgG1, V domains shown, IgG1/Cκ) VH: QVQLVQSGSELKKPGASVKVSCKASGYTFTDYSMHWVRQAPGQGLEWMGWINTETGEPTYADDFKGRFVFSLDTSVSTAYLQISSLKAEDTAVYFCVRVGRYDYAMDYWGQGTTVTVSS VL: DIQMTQSPSSLSASVGDRVTITCKASQDVYTAVAWYQQKPGKAPKLLINSASYRPTGVPSRFSGSGSGTDFTLTISSLQPEDFATYYCQQHYSTPPTFGGGTKVEIK
result: 106000
